system: triacylglycerol hydrolase (TGH) (UniProt Q8VCT4)
Sequence (Q8VCT4 1-565): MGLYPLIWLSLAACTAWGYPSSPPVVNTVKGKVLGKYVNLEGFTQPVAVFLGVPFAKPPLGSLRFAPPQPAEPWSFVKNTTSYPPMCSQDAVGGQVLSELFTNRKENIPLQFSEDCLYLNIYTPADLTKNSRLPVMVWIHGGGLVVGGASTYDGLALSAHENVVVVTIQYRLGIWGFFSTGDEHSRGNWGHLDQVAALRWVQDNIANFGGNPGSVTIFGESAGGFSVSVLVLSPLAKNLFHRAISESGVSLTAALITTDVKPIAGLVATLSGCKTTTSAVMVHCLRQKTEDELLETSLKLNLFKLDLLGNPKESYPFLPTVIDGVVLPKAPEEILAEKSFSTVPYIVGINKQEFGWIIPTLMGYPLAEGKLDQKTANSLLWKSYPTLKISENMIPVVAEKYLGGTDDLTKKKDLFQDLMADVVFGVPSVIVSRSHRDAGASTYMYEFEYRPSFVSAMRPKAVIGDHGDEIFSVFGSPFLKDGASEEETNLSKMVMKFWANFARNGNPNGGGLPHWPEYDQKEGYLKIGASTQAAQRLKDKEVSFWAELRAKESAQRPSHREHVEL
assay.info: Proteome-wide serine hydrolase selectivity screening, TGH
Format: biochemical, human
cond: selectivity screening
pIC50: −log10 of the molar value.
Reported pIC50 is given for each of the following compounds.

{"columns": ["compound", "censor.symbol", "pIC50"],
 "data": [
  ["O=C(CCCCCCc1ccccc1)c1nc(-c2ccccn2)co1 [Compound 4k]", "=", 5.00],
  ["O=C(CCCCCCc1ccccc1)c1nc(C(F)(F)F)co1 [Compound 4t]", "=", 7.22],
  ["O=C(CCCCCCc1ccccc1)c1ncc(C(F)(F)F)o1 [Compound 5a, reference compound]", "=", 6.70],
  ["N#Cc1coc(C(=O)CCCCCCc2ccccc2)n1 [Compound 4s]", "=", 7.52],
  ["O=C(O)c1cnc(C(=O)CCCCCCc2ccccc2)o1 [Compound 5d, reference compound]", "<", 4.00],
  ["N#Cc1cnc(C(=O)CCCCCCc2ccccc2)o1 [Compound 5b, reference compound]", "=", 7.70],
  ["O=C(CCCCCCc1ccccc1)c1ncco1 [Compound 4a]", "=", 7.70]
]}
